In what follows, each item is paired with its MIC for Staphylococcus epidermidis ATCC 12228.
Reply numerically in µM, unit not repeated.

- record-smiles: "CC[C@H](C)[C@H](NC(=O)[C@H](CCCCN)NC(=O)[C@H](CCCCN)NC(=O)[C@H](CC(C)C)NC(=O)[C@H](CCCN=C(N)N)NC(=O)[C@@H](NC(=O)[C@H](CCCN=C(N)N)NC(=O)[C@@H](NC(=O)[C@H](CCCCN)NC(=O)[C@@H](NC(=O)[C@H](CCCN=C(N)N)NC(=O)[C@H](CC(C)C)NC(=O)[C@H](CCCN=C(N)N)NC(=O)[C@H](CCCN=C(N)N)NC(=O)[C@H](Cc1ccccc1)NC(=O)[C@@H](N)CCCN=C(N)N)[C@@H](C)CC)[C@@H](C)O)[C@@H](C)CC)C(N)=O"
  measurement-units: "µM"
  MIC: 16
- record-smiles: "CC(C)C[C@H](NC(=O)[C@H](CCCCN)NC(=O)[C@H](CCCCN)NC(=O)[C@H](C)NC(=O)[C@@H](NC(=O)[C@H](CCCCN)NC(=O)[C@H](CO)NC(=O)[C@H](CC(C)C)NC(=O)[C@H](Cc1c[nH]c2ccccc12)NC(=O)[C@H](CC(C)C)NC(=O)[C@H](CCCCN)NC(=O)[C@H](CCCCN)NC(=O)[C@H](C)NC(=O)[C@@H](NC(=O)[C@H](CCCCN)NC(=O)[C@H](CO)NC(=O)[C@H](CC(C)C)NC(=O)[C@@H](N)Cc1c[nH]c2ccccc12)[C@@H](C)O)[C@@H](C)O)C(N)=O"
  measurement-units: "µM"
  MIC: 128
- record-smiles: "CC(C)C[C@H](NC(=O)[C@H](CC(C)C)NC(=O)[C@H](CCCCN)NC(=O)[C@H](CCCCN)NC(=O)[C@H](CC(C)C)NC(=O)[C@H](C)NC(=O)[C@H](CCCCN)NC(=O)[C@H](Cc1ccccc1)NC(=O)[C@H](CC(C)C)NC(=O)[C@H](C)NC(=O)[C@H](CCCCN)NC(=O)[C@H](CC(C)C)NC(=O)[C@@H](N)Cc1ccccc1)C(=O)O"
  measurement-units: "µM"
  MIC: 6.52
- record-smiles: "CC[C@H](C)[C@H](N)C(=O)N[C@@H](CC(C)C)C(=O)NCC(=O)N[C@@H](CCCCN)C(=O)N[C@H](C(=O)N[C@@H](Cc1c[nH]c2ccccc12)C(=O)N[C@@H](CCC(=O)O)C(=O)NCC(=O)N[C@H](C(=O)N[C@@H](CCCCN)C(=O)N[C@@H](CO)C(=O)N[C@@H](CC(C)C)C(=O)N[C@@H](Cc1ccccc1)C(N)=O)[C@@H](C)CC)[C@@H](C)CC"
  measurement-units: "µM"
  MIC: 8
- record-smiles: "CC[C@H](C)[C@H](N)C(=O)N[C@@H](CC(=O)O)C(=O)N[C@@H](Cc1c[nH]c2ccccc12)C(=O)N[C@@H](CCCCN)C(=O)N[C@@H](CCCCN)C(=O)N[C@@H](CC(C)C)C(=O)N[C@@H](CC(C)C)C(=O)N1CCC[C@H]1C(=O)N[C@@H](C)C(=O)N[C@@H](C)C(=O)N[C@@H](CCCCN)C(=O)N[C@@H](CCC(N)=O)C(=O)N[C@H](C(=O)N[C@@H](CC(C)C)C(N)=O)[C@@H](C)CC"
  measurement-units: "µM"
  MIC: 256
- record-smiles: "CC(C)C[C@H](NC(=O)[C@H](Cc1c[nH]c2ccccc12)NC(=O)[C@H](CCCCN)NC(=O)[C@H](CCCCN)NC(=O)[C@H](CC(C)C)NC(=O)[C@H](Cc1c[nH]c2ccccc12)NC(=O)[C@H](CCCCN)NC(=O)[C@H](CC(C)C)NC(=O)[C@@H](N)CC(C)C)C(=O)N[C@@H](CCCCN)C(=O)N[C@@H](CCCCN)C(N)=O"
  measurement-units: "µM"
  MIC: 1.68

# context switch: different molecule, same MIC
Which measured MIC value corresponds to "CC[C@H](C)[C@H](NC(=O)[C@H](CC(N)=O)NC(=O)[C@H](Cc1cnc[nH]1)NC(=O)[C@H](Cc1ccccc1)NC(=O)[C@H](CC(C)C)NC(=O)[C@H](CCSC)NC(=O)CNC(=O)[C@H](CC(C)C)NC(=O)[C@H](CCSC)NC(=O)[C@H](CCCCN)NC(=O)[C@@H](N)CC(C)C)C(=O)N[C@@H](CCCN=C(N)N)C(=O)N[C@@H](CC(N)=O)C(=O)N[C@H](C(=O)N[C@@H](CC(C)C)C(=O)N[C@@H](CCCCN)C(=O)N[C@H](C(=O)N[C@H](C(N)=O)C(C)C)[C@@H](C)O)[C@@H](C)CC" ?
64
